Target Under Test: JAK1 (Homo sapiens, UniProt P23458)
Construct: 5 μl of catalytic domain recombinant Kinase enzyme+Tyr peptide substrate (Invitrogen, CA)
Sequence (P23458 875-1153 limits assumed): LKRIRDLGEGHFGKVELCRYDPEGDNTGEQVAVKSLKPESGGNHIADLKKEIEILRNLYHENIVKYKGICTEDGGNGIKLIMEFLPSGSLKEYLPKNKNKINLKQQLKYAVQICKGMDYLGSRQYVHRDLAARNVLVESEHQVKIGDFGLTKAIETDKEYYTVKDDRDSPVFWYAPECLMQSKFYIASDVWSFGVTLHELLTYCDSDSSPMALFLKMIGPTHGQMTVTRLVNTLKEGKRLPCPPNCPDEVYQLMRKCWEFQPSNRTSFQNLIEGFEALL
Method Summary: Z'-LYTE kinase assay JAK1
Readout Name: IC50

# example entries with known answers
NC(=O)c1cnc(Nc2ccc(C3CNC3)cc2)cc1NCc1cc(F)ccc1F [Example 213] = 100 to 1000 nM
NC(=O)c1cnc(Nc2ccc(C3CCOCC3)cc2)cc1NCc1ccncn1 [Example 181] = > 1000 nM
NC(=O)c1cnc(Nc2ccc(N3CCOCC3)cc2)c(Cl)c1NCc1cccc(F)c1 [Example 377] = > 1000 nM

Answer for every listed entry: what is its IC50? The entries follow.
1. NC(=O)c1cnc(Nc2ccc(OC(F)(F)F)cc2)cc1NCc1cccc2[nH]ccc12 [Example 322]
2. NC(=O)c1cnc(Nc2ccc(CN3CCOCC3)cc2)cc1NC1(c2ccccc2)CC1 [Example 127]
3. N#CCc1cccc(Nc2cc(NCc3ccccc3)c(C(N)=O)cn2)c1 [Example 387]

1: > 1000 nM; 2: > 1000 nM; 3: 100 to 1000 nM

Reference source for all entries: patent US20150353495A1
